Biological target: Chromo domain-containing protein 1 (Saccharomyces cerevisiae (strain ATCC 204508 / S288c) (Baker's yeast))
Experiment: ScCHD-1 Enzyme Inhibition Assay
Type: functional
Set-up: scale not given: in the data most compounds retested in dose-response had high values
Details: 30 µM
# maps each entry to its Percent Effect
The figure you give is taken to be in %; do not add the unit.

IN: Tell me the measured Percent Effect of CC(C)NC(=O)C1CN(C(=O)N2CCCC2)CC12CCOCC2 (stereo not given) , please.
OUT: 2.05

IN: Tell me the measured Percent Effect of `Cc1nn(C)c(N(C)C)c1CNCCNS(C)(=O)=O` , please.
OUT: -2.87

IN: Tell me the measured Percent Effect of `CC(=O)N1CCC(c2cc(C(F)(F)F)n3ccnc3n2)CC1` , please.
OUT: -32.2

IN: Tell me the measured Percent Effect of CC(O)(CN1CCC2(CC1)OCCO2)c1cccc(C(F)(F)F)c1 (stereo not given) , please.
OUT: -7.48

IN: Tell me the measured Percent Effect of CC(C)(C)C(O)CN1CCN(C(=O)c2cccc3[nH]ncc23)CC1 (stereo not given) , please.
OUT: 22.1

Values compiled from ChEMBL document CHEMBL3988442.
